Target: KRas G12D mutant protein (Homo sapiens (Human), UniProt P01116, G12D)
Sequence (P01116-2 other isoform, or with tags, fused parts or gaps G12D): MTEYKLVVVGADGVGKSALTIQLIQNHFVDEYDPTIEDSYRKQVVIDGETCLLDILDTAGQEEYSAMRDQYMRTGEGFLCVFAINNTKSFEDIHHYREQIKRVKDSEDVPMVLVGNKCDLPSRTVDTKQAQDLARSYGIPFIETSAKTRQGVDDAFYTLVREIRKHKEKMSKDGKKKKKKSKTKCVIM
Assay: Ras GTP binding domain inhibition assay (labeled GTP)
Settings: at 20 μM; read-out: KRas G12D % Inh.
For each entry below, report its inhibition at 20 µM value.

Task item: Any idea what its inhibition at 20 µM is? The compound is COc1nc(-c2ccccn2)nc(Oc2cccc(C(F)(F)F)c2)c1O [drawing 3883]
Reply: 51 to 75%

Task item: Any idea what its inhibition at 20 µM is? The compound is COCC(C)Nc1nc(-c2ccccn2)nc2sc(-c3ccncc3)c(-c3ccccc3)c12 (stereo not shown) [drawing 3859]
Reply: 25 to 50%

Task item: Any idea what its inhibition at 20 µM is? The compound is COc1ccc(COC[C@H]2OC(c3csc4c(=O)[nH]c(-c5ccccn5)nc34)[C@H](O)[C@@H]2O)cc1 (stereo partly shown)
Reply: 25 to 50%

Task item: Any idea what its inhibition at 20 µM is? The compound is COc1cccc(C2CN(C(=O)c3csc4c(O)nc(-c5ccccn5)nc34)CCN2)c1 (stereo not shown) [drawing 3662]
Reply: 51 to 75%

Task item: Any idea what its inhibition at 20 µM is? The compound is CCN(CC)CCOc1nc(-c2nccn2C)nc2sc(-c3ccccc3)c(-c3ccccc3)c12 [drawing 3891]
Reply: 25 to 50%

Task item: Any idea what its inhibition at 20 µM is? The compound is O=C(COCc1ccncc1)Nc1nc(-c2ccccn2)nc2sccc12 [drawing 3700]
Reply: 51 to 75%

Task item: Any idea what its inhibition at 20 µM is? The compound is Oc1nc(-c2ccccn2)nc2c(-c3cccc(C(F)(F)F)c3)csc12 [drawing 3745]
Reply: 51 to 75%

Task item: Any idea what its inhibition at 20 µM is? The compound is CCOCCNc1nc(-c2nccn2C)nc2sc(-c3ccccc3)c(-c3ccccc3)c12 [drawing 3893]
Reply: 51 to 75%

Task item: Any idea what its inhibition at 20 µM is? The compound is Cc1cnc(-c2ccccn2)nc1NC(=O)C1CCCc2cc(C#N)ccc21 (stereo not shown) [drawing 3699]
Reply: 25 to 50%

Task item: Any idea what its inhibition at 20 µM is? The compound is Nc1nc(-c2ccccn2)nc2c(-c3ccccc3)csc12 [drawing 3731]
Reply: 25 to 50%

Task item: Any idea what its inhibition at 20 µM is? The compound is CN(C)Cc1ccc(F)c(-c2csc3c(O)nc(-c4ccccn4)nc23)c1 [drawing 3773]
Reply: 51 to 75%

Task item: Any idea what its inhibition at 20 µM is? The compound is O=C(COCc1ccnc(O)c1)Nc1nc(-c2ccccn2)nc2sccc12 [drawing 3729]
Reply: 25 to 50%

Task item: Any idea what its inhibition at 20 µM is? The compound is COc1ccnc(-c2nc(O)c3ccsc3n2)c1 [drawing 3627]
Reply: 51 to 75%

Task item: Any idea what its inhibition at 20 µM is? The compound is CC(C)OCCNc1nc(-c2nccn2C)nc2sc(-c3ccccc3)c(-c3ccccc3)c12 [drawing 3885]
Reply: 51 to 75%

Task item: Any idea what its inhibition at 20 µM is? The compound is CNC(=O)c1ccc(-c2csc3c(O)nc(-c4ccccn4)nc23)cc1C [drawing 3757]
Reply: 25 to 50%

Task item: Any idea what its inhibition at 20 µM is? The compound is COCCNc1nc(-c2nccn2C)nc2sc(-c3cccc(OC)c3)c(-c3ccccc3)c12 [drawing 3904]
Reply: 25 to 50%
